B1: library; numbered along this chain (parent)
chain: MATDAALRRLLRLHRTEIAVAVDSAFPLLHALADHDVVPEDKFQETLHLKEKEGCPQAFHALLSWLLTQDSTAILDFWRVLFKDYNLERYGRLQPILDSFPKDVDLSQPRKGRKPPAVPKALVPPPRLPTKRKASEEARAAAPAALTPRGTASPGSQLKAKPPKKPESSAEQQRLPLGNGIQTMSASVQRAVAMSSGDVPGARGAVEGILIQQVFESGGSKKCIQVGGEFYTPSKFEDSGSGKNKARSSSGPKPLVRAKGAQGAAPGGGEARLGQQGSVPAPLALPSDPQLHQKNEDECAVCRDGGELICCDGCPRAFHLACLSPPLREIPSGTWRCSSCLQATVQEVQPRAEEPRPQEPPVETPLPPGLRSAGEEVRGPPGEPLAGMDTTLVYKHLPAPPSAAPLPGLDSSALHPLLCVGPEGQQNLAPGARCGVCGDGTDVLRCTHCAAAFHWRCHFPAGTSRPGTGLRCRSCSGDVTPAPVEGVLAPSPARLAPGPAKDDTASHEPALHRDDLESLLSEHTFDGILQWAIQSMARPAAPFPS

Variants of: B1
assay.info: AIRE transcriptional activation functional score (insulin promoter-GFP; nonsense median 0, synonymous median 1) (normalised score); higher = higher AIRE activity (more reporter activation)
experimental.context: with insulin promoter-GFP reporter in HEK293
Could you please classify the records by AIRE transcriptional activation functional score using these ranges: bin 0: < 0.7; bin 1: ≥ 0.7 and < 1; bin 2: ≥ 1

Prompt: Lab log: "P125K" — assign AIRE transcriptional activation functional score category
Response: bin 1

Prompt: Sort into band: "N244D"
Response: bin 2

Prompt: For the record "K235A" , report the class its AIRE transcriptional activation functional score corresponds to.
Response: bin 0

Prompt: # bin lookup: classify "Y90I" by its AIRE transcriptional activation functional score
Response: bin 0

Prompt: Into which bin does this variant go? "L283W"
Response: bin 2

Prompt: Which band does "G527M" fall in?
Response: bin 1

Prompt: Hello team, could you let me know which band the following variant falls into: "D410T"
Response: bin 2

Prompt: Consider "A160S" . To which AIRE transcriptional activation functional score class does it belong?
Response: bin 2

Prompt: Could you place "P380W" in its proper category? Many thanks.
Response: bin 2

Prompt: Record "A461F" — which class?
Response: bin 2

Prompt: Textbook exercise: identify the category of the variant given here, "H35Q" , according to its measured value.
Response: bin 0

Prompt: Given "T16V" , name the class its AIRE transcriptional activation functional score places it in.
Response: bin 0

Prompt: Each variant maps to one class by AIRE transcriptional activation functional score. Which class for "P368V" ?
Response: bin 2

Prompt: Assign a bin to "L273G"
Response: bin 1

Prompt: Just checking, what class would you give "R9K" here?
Response: bin 0

Prompt: Determine which band this variant sits in: "C434H"
Response: bin 0

Prompt: State the band of "A145L"
Response: bin 2

Prompt: Looking at "Q69H" , which class would you pick?
Response: bin 0

Prompt: Given "R113K" , name the class its AIRE transcriptional activation functional score places it in.
Response: bin 2

Prompt: Please let me know in which category the item "P200C" belongs.
Response: bin 2

Prompt: Bin? "P350Y"
Response: bin 1

Prompt: Class label required: "R257K"
Response: bin 1

Prompt: Hi there! Could you help me figure out the category for "L397M" please?
Response: bin 0

Prompt: Hey, which category is "G424C" in, do you know?
Response: bin 2

Prompt: For "G201V" , which AIRE transcriptional activation functional score bin applies?
Response: bin 1

Prompt: For "A271H" , which AIRE transcriptional activation functional score bin applies?
Response: bin 2

Prompt: Assign a bin to "L385I"
Response: bin 0

Prompt: Assign a bin to "C449G"
Response: bin 0

Prompt: The entry to classify is "R336I" ; which class holds it?
Response: bin 1

Prompt: Which AIRE transcriptional activation functional score category applies to "G242C" here?
Response: bin 2

Prompt: Form field 'band' for "A281H"
Response: bin 2

Prompt: Which band does "R351N" fall in?
Response: bin 2

Prompt: For this variant, which bin applies? "L320T"
Response: bin 2

Prompt: Which AIRE transcriptional activation functional score band matches "S464C" ?
Response: bin 2

Prompt: Class label required: "L417T"
Response: bin 1

Prompt: Into which category would you place "C310Q" ?
Response: bin 0

Prompt: Which class is correct for the following variant? "E383L"
Response: bin 2

Prompt: Lab note: sort "G333T" into the matching AIRE transcriptional activation functional score band.
Response: bin 0

Prompt: Into which bin does this variant go? "S535M"
Response: bin 0

Prompt: Returns: class label. Input: "Q530M"
Response: bin 0

Prompt: Where would "K52S" land among the classes by reported AIRE transcriptional activation functional score?
Response: bin 1

Prompt: Input "K102G" ; output its category
Response: bin 0
